- target_or_test_system: CTBP2 MAPPIT prey, wild type (UniProt P56545)
- assay_comment: MAPPIT
- condition_summary: HEK293T cells; +Epo; cotransfected with CTBP2; parent: est. 32; read off a plot; scale: % of maximum induction
experimental_readout: response

# annotated cases, reported response shown
Lab entry: CTBP2 MAPPIT prey, wild type (UniProt P56545) assay, substance EVI1 MAPPIT bait, wild type PFDLT>PFAST , response = 30

Record EVI1 MAPPIT bait, wild type PFDLT SWAP has CTBP2 MAPPIT prey, wild type (UniProt P56545) response equal to 3

1: EVI1 MAPPIT bait, wild type PLDLS>PLASS
2: EVI1 MAPPIT bait, wild type PLDLS SWAP
# compare response for 1 vs 2 ; return the one with the smaller value Output the label that corresponds to your choice.
1
(1: 3, 2: 5)
